# TARGET_DESC: Matrilysin (Homo sapiens)
# Sequence (P09237 whole entry): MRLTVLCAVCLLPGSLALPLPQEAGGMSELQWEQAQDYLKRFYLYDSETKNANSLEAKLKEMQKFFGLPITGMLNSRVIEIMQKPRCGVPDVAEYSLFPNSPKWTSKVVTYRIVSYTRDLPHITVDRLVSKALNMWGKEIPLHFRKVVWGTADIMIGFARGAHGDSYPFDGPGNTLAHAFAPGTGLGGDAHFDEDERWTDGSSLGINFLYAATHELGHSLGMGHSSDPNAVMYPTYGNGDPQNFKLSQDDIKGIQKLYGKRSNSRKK
pKi: −log10 of the molar value.
Listing of recorded pKi by entry.

- COMPOUND: "O=C(NCc1cc2ccccc2o1)[C@H](O)[C@@H](O)C(=O)N1CCCC1c1ccccc1 (some centres not stated)"
  BOUND_TYPE: "<"
  pKi: 4.30
- COMPOUND: "O=C(NCCc1cc(Cc2ccccc2)cs1)[C@H](O)[C@@H](O)C(=O)N1CCCC1c1ccccc1 (some centres not stated)"
  BOUND_TYPE: "="
  pKi: 5.22

====

# TARGET_DESC: Disintegrin and metalloproteinase domain-containing protein 17 (Homo sapiens, UniProt P78536)
# Sequence (P78536 whole entry, the tested form may be a part): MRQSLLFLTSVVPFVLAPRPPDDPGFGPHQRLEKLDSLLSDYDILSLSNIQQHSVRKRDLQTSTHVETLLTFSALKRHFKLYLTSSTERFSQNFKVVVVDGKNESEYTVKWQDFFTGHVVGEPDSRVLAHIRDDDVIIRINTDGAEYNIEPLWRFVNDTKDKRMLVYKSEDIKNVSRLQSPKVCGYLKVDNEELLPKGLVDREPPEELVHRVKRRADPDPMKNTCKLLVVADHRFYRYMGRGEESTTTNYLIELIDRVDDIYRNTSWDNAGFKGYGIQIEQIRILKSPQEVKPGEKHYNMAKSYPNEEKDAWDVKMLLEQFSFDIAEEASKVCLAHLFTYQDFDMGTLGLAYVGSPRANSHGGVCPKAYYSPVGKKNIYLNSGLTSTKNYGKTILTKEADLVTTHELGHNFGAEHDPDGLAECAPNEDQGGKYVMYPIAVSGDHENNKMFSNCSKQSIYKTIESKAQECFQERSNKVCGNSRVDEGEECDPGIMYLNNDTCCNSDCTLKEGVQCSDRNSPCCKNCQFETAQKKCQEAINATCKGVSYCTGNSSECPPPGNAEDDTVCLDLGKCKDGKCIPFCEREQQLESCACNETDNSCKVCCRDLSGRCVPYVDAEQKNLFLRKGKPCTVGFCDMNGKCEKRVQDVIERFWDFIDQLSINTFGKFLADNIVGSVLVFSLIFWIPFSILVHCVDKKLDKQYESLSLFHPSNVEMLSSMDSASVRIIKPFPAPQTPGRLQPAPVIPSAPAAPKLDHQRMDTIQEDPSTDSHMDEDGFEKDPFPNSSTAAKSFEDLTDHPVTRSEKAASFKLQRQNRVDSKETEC
# ASSAY_EXPLANATION: Inhibition of TACE
# CONDITION_NOTES: read-out: Ki
pKi: −log10 of the molar value.
Would you mind labelling by pKi? At or over 7 is YES, under is NO.

- COMPOUND: "O=C(NCCc1cccs1)[C@H](O)[C@@H](O)C(=O)N1CCC(Cc2ccccc2)CC1"
  GROUP_LABEL: "NO"
- COMPOUND: "O=C(NCCc1cccs1)[C@H](O)[C@@H](O)C(=O)N1CCN(c2ccccn2)CC1"
  GROUP_LABEL: "NO"
- COMPOUND: "CN(Cc1cccnc1)C(=O)[C@H](O)[C@@H](O)C(=O)NCCc1cccs1"
  GROUP_LABEL: "NO"
- COMPOUND: "O=C(NCc1cc(CC2C=CC=CC2Cl)cs1)[C@H](O)[C@@H](O)C(=O)N1CCC[C@@H]1c1cccc(Cl)c1 (stereo partly specified)"
  GROUP_LABEL: "YES"
- COMPOUND: "O=C(NCCc1cccs1)[C@H](O)[C@@H](O)C(=O)N1CCCC1c1ccc(Cl)cc1 (stereo partly specified)"
  GROUP_LABEL: "NO"
- COMPOUND: "CN(Cc1ccco1)C(=O)[C@H](O)[C@@H](O)C(=O)NCCc1cccs1"
  GROUP_LABEL: "NO"
- COMPOUND: "O=C(NCCc1cccs1)[C@H](O)[C@@H](O)C(=O)N1CCC[C@@H]1c1ccccc1"
  GROUP_LABEL: "YES"
- COMPOUND: "CN(C(=O)[C@H](O)[C@@H](O)C(=O)NCCc1cccs1)C1CCCCC1"
  GROUP_LABEL: "NO"
- COMPOUND: "O=C(NCCc1nc(Cc2ccccc2)co1)[C@H](O)[C@@H](O)C(=O)N1CCCC1c1ccccc1 (stereo partly specified)"
  GROUP_LABEL: "NO"
- COMPOUND: "O=C(NCCc1cccs1)[C@H](O)[C@@H](O)C(=O)N1CCN(c2ccccc2Cl)CC1"
  GROUP_LABEL: "NO"
- COMPOUND: "O=C(NCCc1cccs1)[C@H](O)[C@@H](O)C(=O)N1CCCC1c1ccccc1Cl (stereo partly specified)"
  GROUP_LABEL: "NO"
- COMPOUND: "CN(Cc1ccccc1)C(=O)[C@H](O)[C@@H](O)C(=O)NCCc1cccs1"
  GROUP_LABEL: "NO"
- COMPOUND: "O=C(NCc1cc(Cc2ccccc2Cl)cs1)[C@H](O)[C@@H](O)C(=S)N1CCCC1c1cccc(Cl)c1 (stereo partly specified)"
  GROUP_LABEL: "NO"
- COMPOUND: "O=C(NCCc1cccs1)[C@H](O)[C@@H](O)C(=O)N1CCCC1c1cccc(Cl)c1 (stereo partly specified)"
  GROUP_LABEL: "YES"
- COMPOUND: "CN(C)c1cccc(C2CCCN2C(=O)[C@H](O)[C@@H](O)C(=O)NCCc2cccs2)c1 (stereo partly specified)"
  GROUP_LABEL: "YES"
- COMPOUND: "O=C([C@H](O)[C@@H](O)C(=S)NCc1cc(Cc2ccccc2Cl)cs1)N1CCCC1c1cccc(Cl)c1 (stereo partly specified)"
  GROUP_LABEL: "NO"
- COMPOUND: "CN(C)C(=O)[C@H](O)[C@@H](O)C(=O)NCCc1cccs1"
  GROUP_LABEL: "NO"
